Cited source for all entries: the supplement of paper PMC9732359

Assay: protein stability index of a GFP-peptide fusion (yeast GPS) (PSI 1-4); higher = more stable; sorted into four equal gates, so the index is relative within each strain
Settings: ubr1∆
QUANTITY MEASURED: protein stability index

residue_string="EEFAYVDPARRQILFKY [MED6]" reported_measurement=2.06
residue_string="VDSRNETDHKTNENGET [SRB4]" reported_measurement=3.27
residue_string="MPRAPRTYSKTYSTPKR [RPS9A]" reported_measurement=2.62
residue_string="SIDFRTYRCSIKNLPAD [SRB2]" reported_measurement=2.27
residue_string="PYQHPPNIFPNLTYYNE [ITC1]" reported_measurement=2.76
residue_string="DTQFTKLLDDNPTEFDW [SRB8]" reported_measurement=2.91
residue_string="TGWISKCTAEGIKVSLL [RPC25]" reported_measurement=2.95
residue_string="ALDTNGTSATTETLTSK [SIR4]" reported_measurement=1.93

----------
Assay: protein stability index of a GFP-peptide fusion (yeast GPS) (PSI 1-4); higher = more stable; sorted into four equal gates, so the index is relative within each strain
Conditions: pdr5∆
Response key: rule met means protein stability index >= 3; rule not met means protein stability index < 3.

residue_string="HLEALQPLFSTVPEYLK [PGD1]" classification="rule not met"
residue_string="GLVNHRVGVKLKFNSTE [SMX3]" classification="rule not met"
residue_string="VASLSKRNKLLTIFDSV [YJL039C/NUP192]" classification="rule not met"
residue_string="DSSMTTVQENELLKSSL [AAR2]" classification="rule met"
residue_string="RARVTKDLVEIKKEEGK [RPN5]" classification="rule met"
residue_string="DMIKCFLPKLNSVRNSL [NUT1]" classification="rule not met"
residue_string="VDKNGAHLYMLEPSGSY [PRE10]" classification="rule not met"
residue_string="TVPNLPTTMVTNQKDTN [ISW2]" classification="rule not met"
residue_string="LIYHLKDCAEVDSRTKI [IRR1]" classification="rule met"
residue_string="DSDELGGESMEGPKKCI [SNM1]" classification="rule met"
residue_string="NGNLEEEFAYVDPARRQ [MED6]" classification="rule met"
residue_string="RTSATREDTPLSQNEST [ISW2]" classification="rule met"
residue_string="IFDGNYGESDIHFREHQ [YMR129W/POM152]" classification="rule met"

----------
Test: protein stability index of a GFP-peptide fusion (yeast GPS) (PSI 1-4); higher = more stable; sorted into four equal gates, so the index is relative within each strain
Conditions: ubr1∆
QUANTITY MEASURED: protein stability index

residue_string="SDNKKRSGSNAAASLPS [RPC82]" reported_measurement=3
residue_string="DEKEKQLAVANEIIRSL [SIR4]" reported_measurement=1.91
residue_string="PVKALNECIASTSNALK [SNF12]" reported_measurement=2.81
residue_string="QKLPQYIIQGSNTNDNI [RGR1]" reported_measurement=3.25
residue_string="IPTLAIDSVEVETNTTV [RPB3]" reported_measurement=2.98
residue_string="TEQQIEVPEGVTVSIKS [RPL9A]" reported_measurement=2.85
residue_string="DESLIRELYKYVRKHDP [PRP28]" reported_measurement=3.09
residue_string="LFKGTGFNSWEGLFWEK [PRP8]" reported_measurement=1.64

----------
Experiment: protein stability index of a GFP-peptide fusion (yeast GPS) (PSI 1-4); higher = more stable; sorted into four equal gates, so the index is relative within each strain
Conditions: doa10∆
Response key: rule met means protein stability index >= 3; rule not met means protein stability index < 3.

residue_string="FLQSQRQQQQRSILQSL [SWI1]" classification="rule not met"
residue_string="ASLKIKNATDLQQAKLR [SMC3]" classification="rule met"
residue_string="RSWTLTSEMKVLSIPPA [YGL100W/SEH1]" classification="rule not met"
residue_string="GDLVYARVCTAEKELEA [RRP40]" classification="rule not met"
residue_string="IARLYSCISISDIISML [RRI2]" classification="rule not met"
residue_string="LFGSKPQGSTTNGGLFG [YGR119C/NUP57]" classification="rule met"
residue_string="KKVSRRNARATRAAKIA [RPL13A]" classification="rule not met"
residue_string="QALEKIGIVEISPKGGR [RPS19A]" classification="rule not met"
residue_string="NGKLTSANERLFGNRPS [YML031W/NDC1]" classification="rule not met"
residue_string="LSAENIEERLVAIAEQD [SCL1]" classification="rule met"
residue_string="NLDYLFELIELVTPKSF [NUT1]" classification="rule not met"
residue_string="DEKEKQLAVANEIIRSL [SIR4]" classification="rule not met"
residue_string="NPFEDDMDGVDFNQAFE [BRN1]" classification="rule met"

----------
Test: protein stability index of a GFP-peptide fusion (yeast GPS) (PSI 1-4); higher = more stable; sorted into four equal gates, so the index is relative within each strain
Details: pdr5∆
QUANTITY MEASURED: protein stability index

residue_string="KILSILNRSHFATTKAE [ECM29]" reported_measurement=2.33
residue_string="LVQLEPHLFVNGDLTVS [SSN2]" reported_measurement=1.9
residue_string="FNEKFPSLIQEEEEDTT [NUT1]" reported_measurement=3.15
residue_string="KHHQLFYMLNAGIRPKF [RPN1]" reported_measurement=2.04
residue_string="LATYGLTIDDLGVASFH [FAS2]" reported_measurement=3.11
residue_string="QEAVNSLKGYKIENSVQ [CSI1]" reported_measurement=3.29
residue_string="GLKYALATGNWGEQKKA [RPB2]" reported_measurement=2.85
residue_string="QAIPKFQMNCYAKEDAF [RPN2]" reported_measurement=2.23
residue_string="TAFKATVFFLIRVAETR [YJL039C/NUP192]" reported_measurement=1.22
residue_string="SLQDSIIKQENFNSVND [SSN2]" reported_measurement=1.83
residue_string="SRRFKNGFQTGSASKAS [RPL37A]" reported_measurement=2.73
residue_string="TFTKKCLENARSQISEK [SIR4]" reported_measurement=3.12
residue_string="NQLEDFILELEHKTPEL [YIL149C/MLP2]" reported_measurement=3.28
residue_string="CSKSIPKDKAIKRMAIR [RPS26A]" reported_measurement=2.96
residue_string="KLRAARAKAMKFADGFL [RPS3]" reported_measurement=3.03
residue_string="LPQCIIPSSYIKRTDEG [ARP7]" reported_measurement=2.59
residue_string="RTKSQVIEEDYDDEQNT [IRR1]" reported_measurement=2.83
residue_string="VEFKLPKELVPSHEKLK [CDC53]" reported_measurement=2.24
residue_string="LCTLNDSKGSLYSVKFA [YGL100W/SEH1]" reported_measurement=2.84
residue_string="QIIFGVVEKKTVGSSNG [RPO21]" reported_measurement=1.66
residue_string="KRSGHRTAPKSDNVYLK [RPL18A]" reported_measurement=2.68
residue_string="ESRAQNVFGQDNEDSDN [SWI3]" reported_measurement=3.16
residue_string="GARFDDGAGGDNEVQRT [RPT1]" reported_measurement=3.4
residue_string="VQQQQQQQLRNQIQRQQ [SNF5]" reported_measurement=2.5
residue_string="RAVKEIKKFAKLHMGTE [RPL31B]" reported_measurement=2.94
residue_string="QIRDVMERFSVLCNSNI [RRP6]" reported_measurement=2.82
residue_string="HEVEEILNELQPNARAL [SMC1]" reported_measurement=3.4
residue_string="VAALRFTAGARAKIVKA [RPL18A]" reported_measurement=1.4
residue_string="PDTSNEICDLAYQYVRA [SRB2]" reported_measurement=2.93
residue_string="SLDTSASTINGASIIQV [YML103C/NUP188]" reported_measurement=1.44
residue_string="VSTAAAATVRSTIRRLR [RPL43A]" reported_measurement=2.8
residue_string="NNTEKNDVTNKNINIGK [SIR4]" reported_measurement=2.21
residue_string="SLLAMHKHNIMKNENAN [CDC53]" reported_measurement=2.58
residue_string="ARYNWICDPVHKHREAR [RPL15A]" reported_measurement=2.81
residue_string="FLTNELIRLQMEKLDAK [SWI3]" reported_measurement=2.98
residue_string="LQLTTNTEQGDSDELGG [SNM1]" reported_measurement=3.55
residue_string="YYSLNIDYHKTAKETKM [RPN11]" reported_measurement=2.77
residue_string="GKTIVVKDLGQGLKLAK [SMC3]" reported_measurement=2.92
residue_string="KPSRTSRQVQKRPRSRT [RPS7A]" reported_measurement=2.44
residue_string="ENDEEFYKNKYSSKPYK [RPN2]" reported_measurement=2.61
residue_string="EIVDTYQEDIFVSESPS [ISW2]" reported_measurement=2.8
residue_string="TEAGFFAIRDDRDHINP [RPT4]" reported_measurement=2.99
residue_string="NVKNYSTTQEILEFITA [RPC34]" reported_measurement=1.45
residue_string="VYAFKAKNKSTRINGLN [REC8]" reported_measurement=1.65
residue_string="TAASVFKELCYENKDNL [PRE3]" reported_measurement=2.45
residue_string="TKHLMPQDLTFNAGSNP [RPB7]" reported_measurement=3.62
residue_string="INELFKKYTQNNPLLLI [RPN8]" reported_measurement=1.48
residue_string="VPEMIGSVVGIYNGKAF [RPS15]" reported_measurement=1.34
residue_string="DRKKDKNVKHSGNIQLD [RPL12A]" reported_measurement=3.46
residue_string="KFQLQNQLEDFILELEH [YIL149C/MLP2]" reported_measurement=1.95
residue_string="LSAENIEERLVAIAEQD [SCL1]" reported_measurement=3.18
residue_string="LTFMTCNSLHIPQDFEN [ESC2]" reported_measurement=2.46
residue_string="GEIDFIKNIGKSLKNNF [YML103C/NUP188]" reported_measurement=2.57
residue_string="SNESQNGKDSEIMYTGV [SMC3]" reported_measurement=3.13
residue_string="PNFLIMQGKITKVLNMK [SMC2]" reported_measurement=2.86
residue_string="KSAMDTFKSVSKYGMLL [POP3]" reported_measurement=2.87
residue_string="QKLPQYIIQGSNTNDNI [RGR1]" reported_measurement=3.09
residue_string="SFELKEEDISDLWNNFG [RRP6]" reported_measurement=3.1
residue_string="PAELEGLLDLERVIVVT [FAS2]" reported_measurement=2.11
residue_string="MNGNTNANTVFAGSNNQ [YOR098C/NUP1]" reported_measurement=3.27
